System: Serratia
Experiment: Antibiotic activity was determined against Serratia species (2)
Assay type: functional
RESULT_TYPE: MIC

**Query** Need MIC of C[C@@H](O)[C@H]1C(=O)N2C(C(=O)O)=C(SCCN)C[C@H]12 , thanks.
**Result** 2.5 µg/mL

Next:
**Query** Need MIC of C[C@@H](O)[C@H]1C(=O)N2C(C(=O)[O-])=C(c3ccc(O)cc3)C[C@H]12.[K+] , thanks.
**Result** 2.3 µg/mL

**Query** Next record, please: C[C@@H](O)[C@H]1C(=O)N2C(C(=O)O)=C(c3ccc(CN)cc3)[C@H](C)[C@H]12
**Result** 6.5 µg/mL

**Query** Next record, please: O=C(O)C1=C(c2cccnc2)CC2CC(=O)N12 (stereo not drawn)
**Result** 0.01 µg/mL
